system: Prostaglandin G/H synthase 2 (Homo sapiens)
Sequence (P35354 whole entry): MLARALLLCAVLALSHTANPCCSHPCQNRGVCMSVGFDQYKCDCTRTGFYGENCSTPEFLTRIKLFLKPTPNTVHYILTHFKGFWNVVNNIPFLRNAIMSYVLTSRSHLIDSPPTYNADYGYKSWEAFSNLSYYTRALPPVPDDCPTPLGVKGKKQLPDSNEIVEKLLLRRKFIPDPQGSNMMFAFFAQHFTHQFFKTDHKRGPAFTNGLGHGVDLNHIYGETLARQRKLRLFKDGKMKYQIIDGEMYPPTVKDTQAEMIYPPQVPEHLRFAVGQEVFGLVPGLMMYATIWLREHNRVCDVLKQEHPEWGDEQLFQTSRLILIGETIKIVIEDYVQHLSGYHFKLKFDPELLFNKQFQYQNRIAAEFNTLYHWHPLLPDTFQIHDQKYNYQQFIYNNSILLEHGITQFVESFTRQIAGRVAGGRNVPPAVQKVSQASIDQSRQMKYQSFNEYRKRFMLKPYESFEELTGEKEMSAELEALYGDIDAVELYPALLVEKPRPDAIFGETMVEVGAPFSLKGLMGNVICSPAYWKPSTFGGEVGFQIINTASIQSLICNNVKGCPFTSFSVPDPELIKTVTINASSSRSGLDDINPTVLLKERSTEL
Under this convention, 1 denotes IC50 strictly below 3 µM and 0 denotes IC50 at or above 3 µM.

> print(dat)
                          compoundstructure  cat
1  O=C(/C=C/c1ccc(O)c(O)c1)NNC(=O)COc1ccc(Cl)cc1    0
2  O=C(/C=C/c1ccc(O)c(O)c1)NNC(=O)COc1cccnc1    0
3  O=C(/C=C/c1ccc(O)c(O)c1)NNC(=O)COc1ccc(Br)cc1    0
4  O=C(/C=C/c1ccc(O)c(O)c1)NNC(=O)COc1cccc2cccnc12    0
5  Cc1ccc(OCC(=O)NNC(=O)/C=C/c2ccc(O)c(O)c2)c(C)c1    1

These entries and their values trace back to ChEMBL document CHEMBL4673359.
